molecular target: various mutants of kinase EGFR (BaF3 cell lines stably transfected with kinase) (Homo sapiens, UniProt P00533, L858R); construct: expressed in transfected cells; host or cells: BaF3; test: Growth inhibitory activity of compounds on BaF3 cell lines stably transfected with kinase (MTS, 48 h); assay type: cell-based; details: BaF3 cells stably transfected with EGFR L858R, read-out: IC50, growth inhibition, L858R
Sequence (P00533 25-1210 L858R): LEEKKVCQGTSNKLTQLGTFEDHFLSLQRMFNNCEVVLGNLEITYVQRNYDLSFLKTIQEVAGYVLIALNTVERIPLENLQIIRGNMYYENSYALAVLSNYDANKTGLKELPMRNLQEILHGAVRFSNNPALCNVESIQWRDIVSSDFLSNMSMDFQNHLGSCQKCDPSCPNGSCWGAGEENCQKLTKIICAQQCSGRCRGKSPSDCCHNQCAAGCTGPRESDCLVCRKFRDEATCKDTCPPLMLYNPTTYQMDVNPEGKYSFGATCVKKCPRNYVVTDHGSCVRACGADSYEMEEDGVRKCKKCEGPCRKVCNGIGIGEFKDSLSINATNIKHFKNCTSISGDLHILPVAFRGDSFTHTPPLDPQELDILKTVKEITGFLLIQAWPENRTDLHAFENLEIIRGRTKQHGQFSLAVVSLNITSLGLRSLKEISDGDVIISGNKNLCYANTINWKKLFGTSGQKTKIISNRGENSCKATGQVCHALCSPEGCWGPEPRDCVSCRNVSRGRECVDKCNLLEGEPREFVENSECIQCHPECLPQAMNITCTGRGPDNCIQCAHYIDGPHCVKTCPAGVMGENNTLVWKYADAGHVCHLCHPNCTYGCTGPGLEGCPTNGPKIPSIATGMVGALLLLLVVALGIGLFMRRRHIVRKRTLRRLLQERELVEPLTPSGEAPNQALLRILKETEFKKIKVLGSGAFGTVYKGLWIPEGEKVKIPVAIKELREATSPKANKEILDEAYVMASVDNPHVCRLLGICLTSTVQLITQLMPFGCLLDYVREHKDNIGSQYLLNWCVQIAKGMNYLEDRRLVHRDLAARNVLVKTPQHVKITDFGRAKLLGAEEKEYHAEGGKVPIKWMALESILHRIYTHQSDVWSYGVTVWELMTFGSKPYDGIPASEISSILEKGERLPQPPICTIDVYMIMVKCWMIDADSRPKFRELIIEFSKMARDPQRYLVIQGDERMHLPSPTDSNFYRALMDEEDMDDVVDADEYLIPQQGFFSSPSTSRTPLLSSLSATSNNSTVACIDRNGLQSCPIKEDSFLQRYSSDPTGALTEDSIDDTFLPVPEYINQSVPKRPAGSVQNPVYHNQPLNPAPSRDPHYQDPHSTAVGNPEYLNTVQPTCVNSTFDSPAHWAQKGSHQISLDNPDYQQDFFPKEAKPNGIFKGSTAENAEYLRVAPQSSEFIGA
pIC50: −log10 of the molar value.
readoutLabel: pIC50

Completed entries (count: 5):
compound=CCc1cc(Nc2ncc(Cl)c(Nc3ccc4nccnc4c3N(C)S(=O)(=O)CC)n2)c(OC)cc1N1CCC(N(C)C)CC1 endpointvalue="≥ 7.30"
compound=COc1cc(N2CCC(N3CCN(C)CC3)CC2)ccc1Nc1ncc(Br)c(Nc2ccc3nccnc3c2N(C)S(C)(=O)=O)n1 endpointvalue="≥ 7.30"
compound=Cc1cc2c(cc1Nc1ncc(Br)c(Nc3ccc4nccnc4c3N(C)S(C)(=O)=O)n1)CN(C)CC2 endpointvalue="6.30 to 7.30"
compound=CCc1cc(Nc2ncc(Br)c(Nc3ccc4nccnc4c3N(C)S(=O)(=O)C3CC3)n2)c(OC)nc1N1CCC(N2CCN(C)CC2)CC1 endpointvalue="6.30 to 7.30"
compound=COc1cc(N2CCC(N3CCN(C)CC3)CC2)ccc1Nc1ncc(Br)c(Nc2ccc3nccnc3c2N(C)S(=O)(=O)C(F)(F)F)n1 endpointvalue="5.60 to 6.30"

The following compounds each have a reported value; give each one's pIC50.
1. COc1cc(C(=O)N2CCC(N3CCN(C)CC3)CC2)ccc1Nc1ncc(Br)c(Nc2ccc3nccnc3c2N(C)S(C)(=O)=O)n1
2. COc1cc(N2CCC(N3CCN(C)CC3)CC2)ccc1Nc1ncc(Br)c(Nc2ccc3nccnc3c2N(C)S(=O)(=O)C2CC2)n1
3. COc1cc(N2CCC(N3CCN(C)CC3)CC2)ccc1Nc1ncc(Cl)c(Nc2ccc3nccnc3c2N(C)S(=O)(=O)C(F)(F)F)n1
4. CCc1cc(Nc2ncc(C(F)(F)F)c(Nc3ccc4nccnc4c3N(C)S(C)(=O)=O)n2)c(OC)cc1N1CCN(C)CC1
5. CCc1cc(Nc2ncc(Br)c(Nc3ccc4nccnc4c3N(C3CC3)S(C)(=O)=O)n2)c(OC)cc1N1CCC(N(C)C)CC1

A)
["6.30 to 7.30", "6.30 to 7.30", "5.60 to 6.30", "≥ 7.30", "≥ 7.30"]

The following compounds each have a reported value; give each one's pIC50.
1. CCc1cc(Nc2ncc(Cl)c(Nc3ccc4nccnc4c3N(C)S(=O)(=O)C(F)(F)F)n2)c(OC)cc1N1CCC(N2CCN(C)CC2)CC1
2. CCc1cc(Nc2ncc(Br)c(Nc3ccc4nccnc4c3N(C)S(C)(=O)=O)n2)c(OC)cc1N1CCC(N(C)C)C1 (centres unmarked)
3. C=Cc1cc(Nc2ncc(Br)c(Nc3ccc4nccnc4c3N(CC)S(C)(=O)=O)n2)c(OC(F)(F)F)cc1N1CCC(N2CCN(C)CC2)CC1
4. CCN(c1c(Nc2nc(Nc3cc(C)c(N4CCC(N(C)C)C4)cc3OC)ncc2Cl)ccc2nccnc12)S(C)(=O)=O (centres unmarked)
5. CN1CCN(C2CCN(c3ccc(Nc4ncc(Cl)c(Nc5ccc6nccnc6c5N(C)S(C)(=O)=O)n4)c(OC(F)(F)F)c3)CC2)CC1
6. CCc1cc(Nc2ncc(Cl)c(Nc3ccc4nccnc4c3N(C)S(=O)(=O)CC)n2)c(OC)cc1N1CCN(C)CC1
7. COc1cc(N2CCC(O)CC2)ccc1Nc1ncc(Br)c(Nc2ccc3nccnc3c2N(C)S(C)(=O)=O)n1
8. CCc1cc(Nc2ncc(Cl)c(Nc3ccc4nccnc4c3N(C)S(C)(=O)=O)n2)c(OC)nc1N1CCC(N2CCN(C)CC2)CC1

A)
1: 6.30 to 7.30; 2: ≥ 7.30; 3: 6.30 to 7.30; 4: ≥ 7.30; 5: 6.30 to 7.30; 6: ≥ 7.30; 7: 6.30 to 7.30; 8: ≥ 7.30

The following compounds each have a reported value; give each one's pIC50.
1. COc1cc(N2CCC(N3CCN(C)CC3)CC2)c(C(C)C)cc1Nc1ncc(Cl)c(Nc2ccc3nccnc3c2N(C)S(C)(=O)=O)n1
2. CN(c1c(Nc2nc(Nc3ccn(C)n3)ncc2Br)ccc2nccnc12)S(C)(=O)=O
3. COc1cc(N2CCN(C)CC2)ccc1Nc1ncc(Br)c(Nc2ccc3nccnc3c2N(C)S(C)(=O)=O)n1

A)
≥ 7.30
6.30 to 7.30
6.30 to 7.30

The following compounds each have a reported value; give each one's pIC50.
1. CCc1cc(Nc2ncc(Br)c(Nc3ccc4nccnc4c3N(C)S(=O)(=O)C(F)(F)F)n2)c(OC)cc1N1CCN(C)CC1
2. CN1CCN(C2CCN(c3ccc(Nc4ncc(F)c(Nc5ccc6nccnc6c5N(C)S(C)(=O)=O)n4)c(OC(F)(F)F)c3)CC2)CC1
3. COc1cc(N2CCC(N3CCN(C)CC3)CC2)c(C)cc1Nc1ncc(C#N)c(Nc2ccc3nccnc3c2N(C)S(C)(=O)=O)n1

A)
1. 5.60 to 6.30
2. 6.30 to 7.30
3. 6.30 to 7.30

The following compounds each have a reported value; give each one's pIC50.
1. COc1cc2c(cc1Nc1ncc(Br)c(Nc3ccc4nccnc4c3N(C)S(C)(=O)=O)n1)CN(C)CC2
2. CCc1cc(Nc2ncc(Br)c(Nc3ccc4nccnc4c3N(C)S(=O)(=O)C(C)C)n2)c(OC)cc1N1CCC(N(C)C)C1 (centres unmarked)

A)
6.30 to 7.30
6.30 to 7.30

###

molecular target: various mutants of kinase EGFR (BaF3 cell lines stably transfected with kinase) (Homo sapiens, UniProt P00533, T790M, form not given); construct: other: BaF3 cells stably transfected with EGFR Δ19Del/T790M; MTS, 48 h; other: BaF3 cell line stably transfected with EGFR Δ19Del/T790M; MTS, 48; experiment: Growth inhibitory activity of compounds on BaF3 cell lines stably transfected with kinase (MTS, 48 h); type: cell-based; settings: BaF3 cell line stably transfected with EGFR Δ19Del/T790M, read-out: Δ19Del/ T790M growth inhibitory activity IC50
Sequence (P00533 with tags, fused parts or gaps DEL746-750/T790M, form open): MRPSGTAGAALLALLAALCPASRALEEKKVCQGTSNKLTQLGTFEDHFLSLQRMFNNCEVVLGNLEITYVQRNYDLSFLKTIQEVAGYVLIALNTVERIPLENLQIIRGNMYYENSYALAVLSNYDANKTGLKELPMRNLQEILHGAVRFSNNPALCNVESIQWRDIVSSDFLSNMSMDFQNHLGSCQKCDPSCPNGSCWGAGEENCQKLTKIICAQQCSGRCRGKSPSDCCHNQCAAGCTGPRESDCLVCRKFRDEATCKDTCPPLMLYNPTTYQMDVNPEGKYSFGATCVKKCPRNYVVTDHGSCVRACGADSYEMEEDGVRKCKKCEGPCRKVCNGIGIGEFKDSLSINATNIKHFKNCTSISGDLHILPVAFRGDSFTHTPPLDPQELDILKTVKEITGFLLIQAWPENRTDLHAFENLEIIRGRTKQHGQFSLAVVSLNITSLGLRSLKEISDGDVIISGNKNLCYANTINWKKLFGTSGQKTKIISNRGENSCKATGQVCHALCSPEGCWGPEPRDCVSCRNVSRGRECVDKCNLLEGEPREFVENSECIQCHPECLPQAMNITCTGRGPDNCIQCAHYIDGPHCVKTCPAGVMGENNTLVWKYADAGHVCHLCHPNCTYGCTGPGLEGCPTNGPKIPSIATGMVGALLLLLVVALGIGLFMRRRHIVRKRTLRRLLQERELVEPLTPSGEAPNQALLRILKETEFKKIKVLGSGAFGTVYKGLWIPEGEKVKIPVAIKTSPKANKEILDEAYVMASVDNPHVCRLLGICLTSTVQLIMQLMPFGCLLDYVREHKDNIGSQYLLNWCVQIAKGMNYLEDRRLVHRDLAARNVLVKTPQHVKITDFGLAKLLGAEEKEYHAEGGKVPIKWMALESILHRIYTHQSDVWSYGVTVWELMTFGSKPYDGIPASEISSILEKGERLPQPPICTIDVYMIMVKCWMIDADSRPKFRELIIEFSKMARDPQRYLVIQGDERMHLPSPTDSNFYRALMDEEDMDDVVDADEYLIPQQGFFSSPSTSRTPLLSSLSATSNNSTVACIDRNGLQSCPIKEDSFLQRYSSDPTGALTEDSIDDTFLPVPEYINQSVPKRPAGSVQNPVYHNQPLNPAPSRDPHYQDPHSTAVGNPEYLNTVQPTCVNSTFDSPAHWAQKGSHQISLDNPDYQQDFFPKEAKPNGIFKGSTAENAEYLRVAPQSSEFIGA
pIC50: −log10 of the molar value.
readoutLabel: pIC50

Completed entries (count: 5):
molecule="C=Cc1cc(Nc2nc(Nc3ccc4nccnc4c3N(C)S(C)(=O)=O)c3occc3n2)c(OC(F)(F)F)cc1N1CCC(N2CCN(C)CC2)CC1 [II-1-42]" endpointvalue="6.30 to 7.30"
molecule="COc1cc(N2CCC(N3CCN(C)CC3)CC2)c(CC2CC2)cc1Nc1ncc(Br)c(Nc2ccc3nccnc3c2NS(C)(=O)=O)n1 [Compound I-408]" endpointvalue="≥ 7.30"
molecule="COc1cc(N2CCC(N3CCN(C)CC3)CC2)c(C2CC2)cc1Nc1nccc(Nc2ccc3nccnc3c2N(C)S(C)(=O)=O)n1 [Compound I-343]" endpointvalue="6.30 to 7.30"
molecule="COc1cc(N2CCC(N3CCN(C)CC3)CC2)c(C)cc1Nc1ncc(Br)c(Nc2ccc3nccnc3c2NS(C)(=O)=O)n1 [Compound I-402]" endpointvalue="≥ 7.30"
molecule="CCc1cc(Nc2ncc(CC)c(Nc3ccc4nccnc4c3N(C)S(C)(=O)=O)n2)c(OC)cc1N1CCC(N2CCN(C)CC2)CC1 [Compound I-318]" endpointvalue="≥ 7.30"

The following molecules each have a reported value; give each one's pIC50.
1. CCc1cc(Nc2ncc(Br)c(Nc3ccc4nccnc4c3NS(C)(=O)=O)n2)c(OC(F)(F)F)cc1N1CCC(N2CCN(C)CC2)CC1 [Compound I-405]
2. COc1ccc(N2CCC(O)CC2)cc1Nc1ncc(F)c(Nc2ccc3nccnc3c2N(C)S(=O)(=O)C2CC2)n1 [Compound I-373]
3. COc1cc(N2CCN(C)CC2)c(C)cc1Nc1ncc(Br)c(Nc2ccc3nccnc3c2N(C2CC2)S(C)(=O)=O)n1 [Compound I-309]
4. COc1cc(N2CCC(N3CCN(C)CC3)CC2)ccc1Nc1ncc(C)c(Nc2ccc3nccnc3c2N(C)S(C)(=O)=O)n1 [Compound I-313]
5. CCc1cc(Nc2nc(Nc3ccc4nccnc4c3N(C)S(C)(=O)=O)c3sccc3n2)c(OC)cc1N1CCC(N(C)C)C1 (centres unmarked) [II-1-17]

A)
1: ≥ 7.30; 2: 5.60 to 6.30; 3: ≥ 7.30; 4: 6.30 to 7.30; 5: 6.30 to 7.30

###

For each of the compounds below, state its pIC50.
molecular target: various mutants of kinase EGFR (BaF3 cell lines stably transfected with kinase) (Homo sapiens); construct: other: BaF3 cells stably transfected with EGFR Δ19Del; MTS, 48 h; other: BaF3 cell line stably transfected with EGFR Δ19Del; assay: Growth inhibitory activity of compounds on BaF3 cell lines stably transfected with kinase (MTS, 48 h); type: cell-based; conditions: BaF3 cell line stably transfected with EGFR Δ19Del, read-out: Δ19Del growth inhibitory activity IC50
pIC50: −log10 of the molar value.

Completed entries (count: 10):
compound="CCc1cnc(Nc2ccc(N3CCC(N4CCN(C)CC4)CC3)c(F)c2F)nc1Nc1ccc2nccnc2c1N(C)S(C)(=O)=O [Compound I-348]" endpointvalue="6.30 to 7.30"
compound="CN1CCN(C2CCN(c3ccc(Nc4ncc(Br)c(Nc5ccc6nccnc6c5N(C)S(C)(=O)=O)n4)c(F)c3F)CC2)CC1 [Compound I-353]" endpointvalue="6.30 to 7.30"
compound="CCc1cc(Nc2ncc(CC)c(Nc3ccc4nccnc4c3N(C)S(C)(=O)=O)n2)c(OC)cc1N1CCC(N(C)C)CC1 [Compound I-323]" endpointvalue="≥ 7.30"
compound="COc1nc(N2CCC(N3CCN(C)CC3)CC2)c(C)cc1Nc1nc(Nc2ccc3nccnc3c2N(C)S(C)(=O)=O)c2[nH]ccc2n1 [II-1-28]" endpointvalue="5.60 to 6.30"
compound="CCc1cc(Nc2ncc(Br)c(Nc3ccc4nccnc4c3N(C)S(C)(=O)=O)n2)c(OC)cc1N1CCC2(CC1)CC(N(C)C)C2 [Compound I-399]" endpointvalue="6.30 to 7.30"
compound="C=Cc1cc(Nc2nc(Nc3ccc4nccnc4c3N(C)S(C)(=O)=O)c3cc[nH]c3n2)c(OC(F)(F)F)cc1N1CCC(N2CCN(C)CC2)CC1 [II-2-9]" endpointvalue="6.30 to 7.30"
compound="COc1ccc(N2CCC(O)CC2)cc1Nc1ncc(F)c(Nc2ccc3nccnc3c2N(C)S(=O)(=O)C2CC2)n1 [Compound I-373]" endpointvalue="5.60 to 6.30"
compound="CCc1cc(Nc2ncc(C(C)C)c(Nc3ccc4nccnc4c3N(C)S(C)(=O)=O)n2)c(OC)nc1N1CCC(N2CCN(C)CC2)CC1 [Compound I-328]" endpointvalue="6.30 to 7.30"
compound="COc1cc(N2CCC(N(C)C)C2)c(C)cc1Nc1nc(Nc2ccc3nccnc3c2N(C)S(C)(=O)=O)c2[nH]ccc2n1 (centres unmarked) [II-1-35]" endpointvalue="5.60 to 6.30"
compound="CCc1cc(Nc2ncc(Br)c(Nc3ccc4nccnc4c3N(C)S(C)(=O)=O)n2)c(OC)cc1C(=O)N1CCC(N2CCN(C)CC2)CC1 [Compound I-355]" endpointvalue="6.30 to 7.30"

The following compounds each have a reported value; give each one's pIC50.
1. CC(C)n1cc(Nc2ncc(Br)c(Nc3ccc4nccnc4c3N(C)S(C)(=O)=O)n2)cn1 [Compound I-388]
2. CCc1cc(Nc2ncc(C3CC3)c(Nc3ccc4nccnc4c3N(C)S(C)(=O)=O)n2)c(OC)cc1C(=O)N1CCC(N2CCN(C)CC2)CC1 [Compound I-347]
3. CC(C)n1ccc(Nc2ncc(Br)c(Nc3ccc4nccnc4c3N(C)S(C)(=O)=O)n2)n1 [Compound I-384]
4. CCc1cc(Nc2ncc(C(C)C)c(Nc3ccc4nccnc4c3N(C)S(C)(=O)=O)n2)c(OC)cc1N1CCC(N2CCN(C)CC2)CC1 [Compound I-327]
5. COc1cc(N2CCC(N(C)C)C2)c(C)cc1Nc1nc(Nc2ccc3nccnc3c2N(C)S(C)(=O)=O)c2sccc2n1 (centres unmarked) [II-1-14]

A)
1: 6.30 to 7.30; 2: 5.60 to 6.30; 3: 5.60 to 6.30; 4: ≥ 7.30; 5: 5.60 to 6.30

The following compounds each have a reported value; give each one's pIC50.
1. CCc1cc(Nc2nc(Nc3ccc4nccnc4c3N(C)S(C)(=O)=O)c3occc3n2)c(OC(F)(F)F)cc1N1CCC(N2CCN(C)CC2)CC1 [II-1-41]
2. CCc1cc(Nc2nccc(Nc3ccc4nccnc4c3N(C)S(C)(=O)=O)n2)ccc1N1CCC(N2CCN(C)CC2)CC1 [Compound I-344]
3. COc1ccc(N2CCC(O)CC2)cc1Nc1nc(Nc2ccc3nccnc3c2N(C)S(C)(=O)=O)c2sccc2n1 [II-1-45]
4. CCc1cc(Nc2nc(Nc3ccc4nccnc4c3N(C)S(C)(=O)=O)c3occc3n2)c(OC)nc1N1CCC(N2CCN(C)CC2)CC1 [II-1-39]
5. COc1ccc(N2CCC(O)CC2)cc1Nc1ncc(OC)c(Nc2ccc3nccnc3c2N(C)S(C)(=O)=O)n1 [Compound I-366]
6. CN1CCN(C2CCN(c3ccc(Nc4nc(Nc5ccc6nccnc6c5N(C)S(C)(=O)=O)c5[nH]ccc5n4)c(OC(F)(F)F)c3)CC2)CC1 [II-1-29]
7. COc1cc(N2CCC(N3CCN(C)CC3)CC2)c(C)cc1Nc1nc(Nc2ccc3nccnc3c2N(C)S(C)(=O)=O)c2[nH]ccc2n1 [II-1-19]
8. CCc1cc(Nc2ncc(OC)c(Nc3ccc4nccnc4c3N(C)S(C)(=O)=O)n2)c(OC)cc1N1CCC(N2CCN(C)CC2)CC1 [Compound I-333]

A)
1. 5.60 to 6.30
2. ≥ 7.30
3. 5.60 to 6.30
4. 5.60 to 6.30
5. 6.30 to 7.30
6. 5.60 to 6.30
7. 5.60 to 6.30
8. ≥ 7.30
